Reported % INHIB 50 nm values are given for each entry in this list.
# Test system: human apolipoprotein B mRNA
# assay_details: Inhibition of human apolipoprotein B mRNA levels in HepG2 cells, quantitative real-time PCR
# Type: cell-based
# experimental_parameters: HepG2 cells; 50 nm oligonucleotide; variable deoxy gap position
Give a bare numeral; the unit % is implied.

>>> readout_value("308656 (antisense GCCTCAGTCTGCTTCGCACC; 8-10-2 2'-MOE gapmer, phosphorothioate, chemistry not fully specified) [compound 308656]")
37
>>> readout_value("308637 (AGGTTACCAGCCACATGCAG; 1-10-9 MOE gapmer, phosphorothioate, chemistry not fully specified) [compound 308637]")
79
>>> readout_value("308632 (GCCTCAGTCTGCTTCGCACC; 0-10-10 MOE gapmer, phosphorothioate, chemistry not fully specified) [compound 308632]")
41
>>> readout_value("308653 (antisense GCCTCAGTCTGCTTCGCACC; 7-10-3 2'-MOE gapmer, phosphorothioate, chemistry not fully specified) [compound 308653]")
73

Quick check: % INHIB 50 nm of 308662 (antisense TGGTAGCCTCAGTCTGCTTC; 8-10-2 2'-MOE gapmer, phosphorothioate, chemistry not fully specified) [compound 308662] ?
76

Quick check: % INHIB 50 nm of 308641 (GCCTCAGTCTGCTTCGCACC; 2-10-8 MOE gapmer, phosphorothioate, chemistry not fully specified) [compound 308641] ?
77

###

# assay_details: ob/ob mice (Example 50): cholesterol, lipid, triglyceride, liver enzyme and glucose levels
# Format: in vivo, mouse
# experimental_parameters: high fat high cholesterol diet, 50 mg/kg i.p. twice a week, six weeks
In the oligonucleotide strings, read from the 5' end, every base follows the letter of its sugar. An asterisk marks phosphorothioate; unmarked linkages are phosphodiester. Other units and linkages are bracketed, terminal groups are in braces. A string of capitals states the bases alone. e = 2'-O-(2-methoxyethyl) (MOE); [5mC] = 5-methylcytosine; d = 2'-deoxy (DNA)
value_type: Liver Enzymes AST (IU/L)
Give a bare numeral; the unit IU/L is implied.

>>> readout_value("147483 (ATGTCAATGCCACATGTCCA; phosphorothioate, 2'-MOE wings, chemistry not fully specified) [compound 147483]")
790.2
>>> readout_value("147764 (eG*eT*e[5mC]*e[5mC]*e[5mC]*dT*dG*dA*dA*dG*dA*dT*dG*dT*d[5mC]*eA*eA*eT*eG*e[5mC]) [compound 147764]")
406.5
>>> readout_value("116847 (antisense CTGCTAGCCTCTGGATTTGA; listed as DNA, chemistry not given here) [compound 116847]")
343.2

Proceed to the following item.
Quick check: Liver Enzymes AST of 141923 (CCTTCCCTGAAGGTTCCTCC; listed as DNA, chemistry not given here) [compound 141923] ?
329.3

###

# Tested on: human apolipoprotein B mRNA
# assay_details: Inhibition of human apolipoprotein B mRNA levels in HepG2 cells, quantitative real-time PCR
# Assay type: cell-based
# experimental_parameters: Table 11 gene walk; HepG2 cells, 150 nM; averages from two experiments
In the oligonucleotide strings, read from the 5' end, every base follows the letter of its sugar. An asterisk marks phosphorothioate; unmarked linkages are phosphodiester. Other units and linkages are bracketed, terminal groups are in braces. A string of capitals states the bases alone. e = 2'-O-(2-methoxyethyl) (MOE); [5mC] = 5-methylcytosine; d = 2'-deoxy (DNA)
value_type: % INHIB 150 nm (%)
Give a bare numeral; the unit % is implied.

Here are 4 substances together with their reported answers.
>>> readout_value("308594 (antisense eT*eG*e[5mC]*eT*eT*d[5mC]*dG*d[5mC]*dA*d[5mC]*d[5mC]*dT*dT*d[5mC]*dT*eG*e[5mC]*eT*eT*eG) [compound 308594]")
88
>>> readout_value("308602 (antisense e[5mC]*eA*eT*eG*eG*dT*dA*dG*d[5mC]*d[5mC]*dT*d[5mC]*dA*dG*dT*e[5mC]*eT*eG*e[5mC]*eT) [compound 308602]")
92
>>> readout_value("308599 (antisense eA*eG*e[5mC]*e[5mC]*eT*d[5mC]*dA*dG*dT*d[5mC]*dT*dG*d[5mC]*dT*dT*e[5mC]*eG*e[5mC]*eA*e[5mC]) [compound 308599]")
94
>>> readout_value("308619 (eG*eT*eA*eG*eG*d[5mC]*dT*d[5mC]*d[5mC]*dT*dT*dT*dT*dA*dG*eG*eT*eT*eA*e[5mC]; antisense) [compound 308619]")
74

Proceed to the following item.
Quick check: % INHIB 150 nm of 308616 (eT*e[5mC]*e[5mC]*eT*eT*dT*dT*dA*dG*dG*dT*dT*dA*d[5mC]*d[5mC]*eA*eG*e[5mC]*e[5mC]*eA; antisense) [compound 308616] ?
81
